Please respond with reported inhibition at 0.01 µM for every item in the list.
# targetUnderTest: Chk1 (Homo sapiens, UniProt O14757)
# Construct: purchased Carna Biosciences
# Sequence (O14757 whole entry): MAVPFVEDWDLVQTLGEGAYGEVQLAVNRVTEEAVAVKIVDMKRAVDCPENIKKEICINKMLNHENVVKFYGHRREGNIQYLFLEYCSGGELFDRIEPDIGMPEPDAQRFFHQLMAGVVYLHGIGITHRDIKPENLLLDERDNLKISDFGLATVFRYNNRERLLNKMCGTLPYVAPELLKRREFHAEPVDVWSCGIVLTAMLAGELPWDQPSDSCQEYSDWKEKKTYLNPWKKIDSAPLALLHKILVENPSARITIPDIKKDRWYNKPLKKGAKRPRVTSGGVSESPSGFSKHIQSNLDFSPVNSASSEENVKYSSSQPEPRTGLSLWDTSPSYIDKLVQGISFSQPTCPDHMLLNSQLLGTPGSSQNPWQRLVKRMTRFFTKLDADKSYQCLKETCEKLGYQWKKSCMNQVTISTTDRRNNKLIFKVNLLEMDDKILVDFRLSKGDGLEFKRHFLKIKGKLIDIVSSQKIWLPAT
# assaySummary: LabChip (Caliper) kinase assay, Chk1
# Assay type: biochemical
# experimentalSetup: compound at 10 nM, read-out: remaining kinase activity (in %) / percentage of inhibition
Reply with just the number (in %).

# C[C@H]1O[C@@H](n2c3ccccc3c3c4c(c5c6ccccc6[nH]c5c32)CNC4=O)C[C@@H](O)[C@@H]1O [formula (XV), N^13-1′-β-D-olivosyl-k252c] with Chk1 (Homo sapiens, UniProt O14757): inhibition at 0.01 µM is 4

# lookup: "C[C@H]1O[C@@H](n2c3ccccc3c3c4c(c5c6ccccc6[nH]c5c32)C(=O)NC4=O)C[C@@H](O)[C@@H]1O" on Chk1 (Homo sapiens, UniProt O14757), inhibition at 0.01 µM = 2

Param item: C[C@@H]1O[C@@H](n2c3ccccc3c3c4c(c5c6ccccc6[nH]c5c32)CNC4=O)C[C@H](O)[C@H]1O [formula (XIII), N^13-1′-β-L-olivosyl-k252c] ; param system: Chk1 (Homo sapiens, UniProt O14757); output inhibition at 0.01 µM: 1

Measured inhibition at 0.01 µM for this entry "C[C@@H]1O[C@@H](n2c3ccccc3c3c4c(c5c6ccccc6[nH]c5c32)C(=O)NC4=O)C[C@@H](O)[C@H]1O" on Chk1 (Homo sapiens, UniProt O14757): 45

Field inhibition at 0.01 µM (system: Chk1 (Homo sapiens, UniProt O14757)) for entry C[C@@H]1O[C@@H](n2c3ccccc3c3c4c(c5c6ccccc6[nH]c5c32)CNC4=O)C[C@@H](O)[C@H]1O [formula (XIV), N^13-1′-β-L-digitoxosyl-k252c] = 6

# lookup: "C[C@@H]1O[C@@H](n2c3ccccc3c3c4c(c5c6ccccc6[nH]c5c32)C(=O)NC4=O)C[C@H](O)[C@H]1O" on Chk1 (Homo sapiens, UniProt O14757), inhibition at 0.01 µM = 5

Lab note: compound C[C@@H]1O[C@@H](n2c3ccccc3c3c4c(c5c6ccccc6[nH]c5c32)CNC4=O)[C@H](O)[C@H](O)[C@H]1O [formula (XII), N^13-1′-β-L-rhamnosyl-k252c] tested on Chk1 (Homo sapiens, UniProt O14757); recorded inhibition at 0.01 µM was 2

Record "C[C@@H]1O[C@@H](n2c3ccccc3c3c4c(c5c6ccccc6[nH]c5c32)C(=O)NC4=O)[C@H](O)[C@H](O)[C@H]1O" ; system Chk1 (Homo sapiens, UniProt O14757); inhibition at 0.01 µM = -3

====

Provide the reported inhibition at 0.1 µM of each item.
# targetUnderTest: Erk2 (Homo sapiens, UniProt P28482)
# Construct: purchased Carna Biosciences
# Sequence (P28482 whole entry): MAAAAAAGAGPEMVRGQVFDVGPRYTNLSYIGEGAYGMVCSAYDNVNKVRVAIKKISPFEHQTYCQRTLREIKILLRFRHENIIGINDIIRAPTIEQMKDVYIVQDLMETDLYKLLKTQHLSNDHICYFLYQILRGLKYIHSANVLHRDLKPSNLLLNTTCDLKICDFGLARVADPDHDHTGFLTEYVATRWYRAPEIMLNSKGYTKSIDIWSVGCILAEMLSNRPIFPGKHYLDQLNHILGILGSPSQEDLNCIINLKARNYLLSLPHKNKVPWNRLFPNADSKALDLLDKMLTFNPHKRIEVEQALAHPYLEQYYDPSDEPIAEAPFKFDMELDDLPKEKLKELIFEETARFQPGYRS
# assaySummary: LabChip (Caliper) kinase assay, Erk2
# Type: biochemical
# experimentalSetup: compound at 100 nM, read-out: remaining kinase activity (in %) / percentage of inhibition

The value of inhibition at 0.1 µM measured for the compound "C[C@@H]1O[C@@H](n2c3ccccc3c3c4c(c5c6ccccc6[nH]c5c32)C(=O)NC4=O)C[C@@H](O)[C@H]1O" turned out to be 0%

Reported inhibition at 0.1 µM of C[C@@H]1O[C@@H](n2c3ccccc3c3c4c(c5c6ccccc6[nH]c5c32)CNC4=O)[C@H](O)[C@H](O)[C@H]1O [formula (XII), N^13-1′-β-L-rhamnosyl-k252c] : -1%

The reported value for "C[C@H]1O[C@@H](n2c3ccccc3c3c4c(c5c6ccccc6[nH]c5c32)C(=O)NC4=O)C[C@@H](O)[C@@H]1O" in terms of inhibition at 0.1 µM is 30%

Source: patent US8598132B2
